The origin of these recorded values is PubChem BioAssay AID504452.

Target: Peroxisome proliferator-activated receptor gamma (Homo sapiens) (UniProt P37231)
Sequence (P37231 whole entry, looked up): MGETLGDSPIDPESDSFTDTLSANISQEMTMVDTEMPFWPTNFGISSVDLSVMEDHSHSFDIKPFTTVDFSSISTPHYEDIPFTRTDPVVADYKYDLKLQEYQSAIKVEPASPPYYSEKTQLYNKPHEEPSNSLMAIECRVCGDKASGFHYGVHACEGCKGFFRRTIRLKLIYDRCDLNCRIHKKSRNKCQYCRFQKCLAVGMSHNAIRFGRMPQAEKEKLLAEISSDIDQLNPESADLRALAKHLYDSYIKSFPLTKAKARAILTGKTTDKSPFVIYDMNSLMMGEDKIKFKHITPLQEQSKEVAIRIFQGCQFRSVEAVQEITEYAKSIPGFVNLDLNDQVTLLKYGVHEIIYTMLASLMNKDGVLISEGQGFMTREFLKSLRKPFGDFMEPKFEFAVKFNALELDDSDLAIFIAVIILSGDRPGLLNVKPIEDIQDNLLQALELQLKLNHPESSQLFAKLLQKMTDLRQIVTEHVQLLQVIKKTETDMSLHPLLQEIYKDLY
Assay: partial agonism at human PPARgamma receptor – cell-based, luciferase reporter, luminescence, primary screen (AID 504452);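 further: Cos-1 cells carrying PPARgamma and a response element luciferase reporter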
Conditions: cell-based PPARg luciferase reporter, at 5 µM
The source made the active and inactive calls. No stated cut-off is given here; in the data, active means activation above about 85%; inactive means the rest.
Outcome field: choose from yes (1) (active), no (0) (inactive)

Enquiry: How did this test come out for `Cc1ccc(CN2C(=O)N/C(=C\c3cccn3-c3cccc(C(=O)O)c3)C2=O)cc1` ?
Return: no (0)

Enquiry: Lookup `O=C(CCCCCNC(=O)N1CCn2c1nc1ccccc12)N[C@@H](Cc1ccccc1)C(=O)O`
Return: no (0)

Enquiry: Lookup `O=c1c([N+](=O)[O-])c(NCCN2CCCCCC2)c2ccccc2n1-c1ccccc1`
Return: no (0)

Enquiry: Lookup CC(Oc1ccc(F)cc1)C(=O)Nc1cc(S(=O)(=O)N2CCCCC2)ccc1N1CCOCC1 (stereo not given)
Return: no (0)

Enquiry: Lookup CCOc1ccc(CN2CCN(Cc3cccc4nonc34)CC2CCO)cc1 (stereo not given)
Return: yes (1)

Enquiry: Lookup Cc1cc(N2C(=O)C(O)=C(C(=O)c3ccco3)C2c2cccc(Cl)c2)no1 (stereo not given)
Return: no (0)

Enquiry: Lookup `N#C/C(=C\c1ccc(OCCN2CCOCC2)cc1)C(=O)Nc1ccc(S(N)(=O)=O)cc1`
Return: no (0)

Enquiry: Lookup O=C1C(=O)N(Cc2cccnc2)C(c2cccc(F)c2)/C1=C(/O)c1ccc2c(c1)OCO2 (stereo not given)
Return: no (0)

Enquiry: Lookup S=C(NCCc1ccccc1)N1CCn2cccc2C1c1ccncc1 (stereo not given)
Return: yes (1)

Enquiry: Lookup COc1ccc(CN(Cc2ccccn2)C(=O)CN2C(=O)C(C)Oc3ccccc32)cc1 (stereo not given)
Return: yes (1)
